Just for reference, patent US20200270586A1 is where these values come from.

Assayed system: LgTrip 3546 (with His tag; SEQ ID NO: 51)
Sequence (chain, as listed by the source): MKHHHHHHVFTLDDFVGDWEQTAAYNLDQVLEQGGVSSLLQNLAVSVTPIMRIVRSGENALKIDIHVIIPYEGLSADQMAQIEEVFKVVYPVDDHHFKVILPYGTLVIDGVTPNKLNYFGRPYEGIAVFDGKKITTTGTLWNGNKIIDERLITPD
Assay notes: luminescence complementation
Experimental setup: modification not given
pKd: −log10 of the molar value.
Result type: pKd

binder="DKLLFKVTIEKWK [754]" obs_value=6.12
binder="EKMLFTVTIEKWK [720]" obs_value=6.44

I = EKMLFTVTIGRWK [712]
II = DKMLFRVTIEKWK [742]
III = GKMLFRVTINRWK [701]
## Input List these items ordered by pKd, big to small. To answer, write out the labels according to the requested order.
## Output III, I, II
(III: 6.92, I: 6.43, II: 6.12)
